details: in acetone, 288.15 K
parameter: solubility (mole fraction)
Numbers only.

## Task Which solubility (mole fraction) value is on record for COc1c(N2CCNC(C)C2)c(F)cc2c(=O)c(C(=O)O)cn(C3CC3)c12 (stereo unspecified) ?
## Result 0.0013

---

conditions: in methanol, 293.15 K
parameter: solubility (mole fraction)
One number for each entry.

## Task Which solubility (mole fraction) value is on record for COc1c(N2CCNC(C)C2)c(F)cc2c(=O)c(C(=O)O)cn(C3CC3)c12 (stereo unspecified) ?
## Result 0.000438

---

conditions: in DMF, 318.15 K
parameter: solubility (mole fraction)
Answers are plain numbers.

## Task Which solubility (mole fraction) value is on record for COc1c(N2CCNC(C)C2)c(F)cc2c(=O)c(C(=O)O)cn(C3CC3)c12 (stereo unspecified) ?
## Result 0.00989

Taken from BigSolDB 2.1.
